- assay-notes: AUC in Beagle dog at 0.2 mg/kg, iv by LC-MS/MS analysis
- Format: ADME, organism-based, Canis lupus familiaris
- test-settings: in vivo

structure-notation	AUC [ng·h/mL]
Cc1ccc(OC2CN(c3cccc(COC(=O)NC(=N)N)c3F)C2)cn1.O=C(O)C(O)C(O)C(=O)O	380

* * *

In this section, each of the compounds is paired with its reported solubility at 20 h, 130 µM.
- assay-notes: Aqueous solubility of compound in Japanese pharmacopoeia second fluid at pH 6.8 at 130 uM after 20 hrs by HPLC analysis
- Assay type: physicochemical
parameter: solubility at 20 h, 130 µM (µM)

structure-notation	parameter	modifier-sign	measured-result
N=C(N)NC(=O)OCc1cccc(-c2cnc(N3CCOCC3)nc2)c1.O=C(O)C(O)C(O)C(=O)O	solubility at 20 h, 130 µM	=	8.3
Cl.Cl.Cl.N=C(N)NC(=O)OCc1cccc(N2CCN(c3cccnc3)CC2)c1	solubility at 20 h, 130 µM	≥	100
Cc1nc(N2CCOCC2)ncc1-c1cccc(COC(=O)NC(=N)N)c1F.O=C(O)C(O)C(O)C(=O)O	solubility at 20 h, 130 µM	=	90
N=C(N)NC(=O)OCc1cccc(N2CC(Oc3cccnc3)C2)c1F.N=C(N)NC(=O)OCc1cccc(N2CC(Oc3cccnc3)C2)c1F.O=C(O)C(O)C(O)C(=O)O	solubility at 20 h, 130 µM	≥	100
CN(Cc1cccc(-c2cnc(N3CCOCC3)nc2)c1)C(=O)CN.O=C(O)C(O)C(O)C(=O)O	solubility at 20 h, 130 µM	≥	100
